# subject-of-test: T1, MICAL1 (Homo sapiens (Human), UniProt Q8TDZ2)
# T1 chain: EPPPKPPRSCSALAR
# experimental-protocol: ITC, Trx fusions
parameter-measured: pKd
Numbers only, as −log10 of the molar value.

Record excerpt, results attached:
binder="GRAF2_SH3 (protein) IRSRKARAVYPCEAEHSSELSFEIGAIFEDVQTSREPGWLEGTLNGKRGLIPQNYVKLL" parameter_measured=pKd readout_value=5.88
binder="ASAP1_SH3 (protein) VRRVKTIYDCQADNDDELTFIEGEVIIVTGEEDQEWWIGHIEGQPERKGVFPVSFVHILSD" parameter_measured=pKd readout_value=6.09

Ask: I'd like to know its pKd. The binder in question is SKAP1_SH3 (protein) DYASYYQGLWDCHGDQPDELSFQRGDLIRILSKEYNMYGWWVGELNSLVGIVPKEYLTTAFE
Reply: 5.22
